molecular target: UniProt:Q9UBN7; assay: HDAC in vitro enzymatic assay (fluorescence); assay type: biochemical; conditions: full HDAC panel; top concentration 10 μM; read-out: IC50 HDAC6
# IC50 values compiled below

structure_as_smiles: Cc1cc(O)cc(C)c1-c1nc2ccc(C(=O)NO)cc2[nH]1
units_symbol: µM
IC50: 0.069
--
structure_as_smiles: O=C(NO)c1ccc2nc(-c3ccccc3C(F)(F)F)[nH]c2c1
units_symbol: µM
IC50: 0.077

---

molecular target: UniProt:Q9UBN7; assay: HDAC in vitro enzymatic assay (fluorescence); format: biochemical; details: top concentration 2 μM; read-out: IC50 values for inhibition of HDAC6
pIC50: −log10 of the molar value. Counter-ions that a name gives are not always drawn.
y means recorded pIC50 is 8 or above; n means it is below 8.

compound: O=C(NO)c1ccc2nc(-c3ccc4c(c3)CCO4)[nH]c2c1
assayed_target: UniProt:Q9UBN7
assigned_class: y

compound: CCCCc1ccc(-c2nc3ccc(C(=O)NO)cc3[nH]2)cc1
assayed_target: UniProt:Q9UBN7
assigned_class: n

compound: CC(C)c1ccc(-c2nc3cc(C(=O)NO)ccc3n2C)cc1
assayed_target: UniProt:Q9UBN7
assigned_class: n

compound: O=C(NO)c1ccc2nc(-c3ccc(-c4cccc(Cl)c4)s3)[nH]c2c1
assayed_target: UniProt:Q9UBN7
assigned_class: y

compound: COc1ccc(-c2ccc(-c3nc4ccc(C(=O)NO)cc4[nH]3)o2)cc1OC
assayed_target: UniProt:Q9UBN7
assigned_class: y

compound: O=C(NO)c1ccc2nc(-c3ccc(Br)cc3)[nH]c2c1
assayed_target: UniProt:Q9UBN7
assigned_class: n

compound: Cc1cc(O)cc(C)c1-c1nc2ccc(C(=O)NO)cc2[nH]1
assayed_target: UniProt:Q9UBN7
assigned_class: n

compound: O=C(NO)c1ccc2nc(-c3ccc(-c4cccc(CN5CCCCC5)c4)cc3)[nH]c2c1 [Example 186, trifluoroacetate]
assayed_target: UniProt:Q9UBN7
assigned_class: y

compound: CCc1ccc(-c2nc3ccc(C(=O)NO)cc3[nH]2)cc1
assayed_target: UniProt:Q9UBN7
assigned_class: n

compound: CC(C)(C)c1ccc(-c2nc3ccc(C(=O)NO)cc3[nH]2)cc1
assayed_target: UniProt:Q9UBN7
assigned_class: n
